B1: Azoarcus group I ribozyme (parent)
chain: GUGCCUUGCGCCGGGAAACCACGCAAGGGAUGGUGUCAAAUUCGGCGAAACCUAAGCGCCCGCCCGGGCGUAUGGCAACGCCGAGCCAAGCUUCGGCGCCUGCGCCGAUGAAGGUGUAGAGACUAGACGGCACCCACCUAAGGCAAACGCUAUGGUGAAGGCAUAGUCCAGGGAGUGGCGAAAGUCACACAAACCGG

variants of: B1; assay: reverse-splicing fitness (ratio to wild type); higher = more active; in vitro selection; Mg2+ level not given
param class (str): category from reverse-splicing fitness; see ranges bottom end: < 0.005; midrange: ≥ 0.005 and < 0.01; top end: ≥ 0.01

A selection of reference data follows.
C82U A111C A120G C150A C169A U176G : midrange
A111U A120C A145G C150G C169U U176G : midrange
C82G A120U A145C C169G U176C : bottom end
C82G A120U A145G C169G U176G : bottom end
C82U C150A U176G : top end
C82G A111U A120C A145G C150A : top end
C82U A111G A120G A145C C169U : midrange
C82G A111U A145U U176G : top end
A111G A120G A145G C150G C169G : top end
C82A A111C A120C A145C C150U : top end

*Q* Kindly identify the class of C82A A111U A120C A145U C150U C169U U176G .
*A* midrange

*Q* Kindly identify the class of C82G A120U C150G C169G U176G .
*A* bottom end

*Q* Kindly identify the class of C82A A111C A120G A145G C150U C169U U176A .
*A* top end

*Q* Kindly identify the class of C82G A111U A120C C150G C169U .
*A* top end

Every entry's value here was drawn from the RNAGym collection of RNA variant scans (doi:10.1093/molbev/msab373).
